Provide the reported PB1(5) Tm (Supplementary Table 2) of each item.
target: PB1(5) (Homo sapiens); construct: the fifth bromodomain of PB1 (PB1(5)); made in house; experiment: DSF Tm shift assay, PB1(5) bromodomain; type: binding; conditions: average of three replicates and standard deviation
Sequence (Q86U86 653-774): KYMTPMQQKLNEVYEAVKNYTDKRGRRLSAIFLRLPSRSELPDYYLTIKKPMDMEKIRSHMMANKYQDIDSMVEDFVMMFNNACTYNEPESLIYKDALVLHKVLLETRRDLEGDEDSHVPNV
Note: unit °C is implicit; provide only the numeric part.

Lookup: Which PB1(5) Tm (Supplementary Table 2) is reported for this compound? CN1CCN(/C=C2\CCn3c2nc(=O)c2ccccc23)CC1
Found: 5.8

Lookup: Which PB1(5) Tm (Supplementary Table 2) is reported for this compound? CCN1CCN(/C=C2\CCn3c2nc(=O)c2ccccc23)CC1
Found: 5.0

Lookup: Which PB1(5) Tm (Supplementary Table 2) is reported for this compound? CC(C)(C)OC(=O)N1CCN(/C=C2\CCn3c2nc(=O)c2ccccc23)CC1
Found: 4.7

Lookup: Which PB1(5) Tm (Supplementary Table 2) is reported for this compound? O=c1nc2n(c3ccccc13)CC/C2=C\N1CCCC1
Found: 4.3

Lookup: Which PB1(5) Tm (Supplementary Table 2) is reported for this compound? CN1CCCN(/C=C2\CCn3c2nc(=O)c2ccccc23)CC1
Found: 3.5
